# system_under_test: hKCC2 (Homo sapiens, UniProt Q9H2X9, L143X/L381X/L939X)
# experimental_protocol: 86Rb+ uptake (K+-Cl- cotransport) in Xenopus oocytes injected with hKCC2 cRNA
# assay_context: KCC2
# Method: Oocytes were surgically collected from anesthetized female Xenopus adults under 0.17% tricaine and incubated for 1 hour with vigorous shaking in frog Ringer ND96 (96 mM sodium chloride, 2 mM potassium chloride, 1.8 mM calcium chloride, 1.0 mM magnesium chloride, and 5 mM Hepes/Tris, pH 7.4) in the presence of 2 mg/ml collagenase B. Oocytes were then washed four times in ND96, manually defolliculated, and incubated overnight in ND96 at 18° C. […]
measurement_name: IC50 (µM)
Give bare numbers, in µM.

Given the entry NS(=O)(=O)c1cc(C(=O)O)c(NCc2ccco2)cc1Cl [furosemide] , report its measured IC50.
90

----------
Answer each item with its documented 86Rb+ influx in the presence of other anions, percentage of KCC4 function.
# system_under_test: mKCC4 (Mus musculus)
# Construct: a full-length mKCC4 cDNA was used as a standard in the Xenopus expression vector pGEMHE; expressed in transfected cells; host or cells: Xenopus laevis oocytes injected with cRNA (pGEMHE, T7 transcript)
# Sequence (Q9WVL3 1-1083 L71X/L155X/L467X/L586X/L639X/L1023X): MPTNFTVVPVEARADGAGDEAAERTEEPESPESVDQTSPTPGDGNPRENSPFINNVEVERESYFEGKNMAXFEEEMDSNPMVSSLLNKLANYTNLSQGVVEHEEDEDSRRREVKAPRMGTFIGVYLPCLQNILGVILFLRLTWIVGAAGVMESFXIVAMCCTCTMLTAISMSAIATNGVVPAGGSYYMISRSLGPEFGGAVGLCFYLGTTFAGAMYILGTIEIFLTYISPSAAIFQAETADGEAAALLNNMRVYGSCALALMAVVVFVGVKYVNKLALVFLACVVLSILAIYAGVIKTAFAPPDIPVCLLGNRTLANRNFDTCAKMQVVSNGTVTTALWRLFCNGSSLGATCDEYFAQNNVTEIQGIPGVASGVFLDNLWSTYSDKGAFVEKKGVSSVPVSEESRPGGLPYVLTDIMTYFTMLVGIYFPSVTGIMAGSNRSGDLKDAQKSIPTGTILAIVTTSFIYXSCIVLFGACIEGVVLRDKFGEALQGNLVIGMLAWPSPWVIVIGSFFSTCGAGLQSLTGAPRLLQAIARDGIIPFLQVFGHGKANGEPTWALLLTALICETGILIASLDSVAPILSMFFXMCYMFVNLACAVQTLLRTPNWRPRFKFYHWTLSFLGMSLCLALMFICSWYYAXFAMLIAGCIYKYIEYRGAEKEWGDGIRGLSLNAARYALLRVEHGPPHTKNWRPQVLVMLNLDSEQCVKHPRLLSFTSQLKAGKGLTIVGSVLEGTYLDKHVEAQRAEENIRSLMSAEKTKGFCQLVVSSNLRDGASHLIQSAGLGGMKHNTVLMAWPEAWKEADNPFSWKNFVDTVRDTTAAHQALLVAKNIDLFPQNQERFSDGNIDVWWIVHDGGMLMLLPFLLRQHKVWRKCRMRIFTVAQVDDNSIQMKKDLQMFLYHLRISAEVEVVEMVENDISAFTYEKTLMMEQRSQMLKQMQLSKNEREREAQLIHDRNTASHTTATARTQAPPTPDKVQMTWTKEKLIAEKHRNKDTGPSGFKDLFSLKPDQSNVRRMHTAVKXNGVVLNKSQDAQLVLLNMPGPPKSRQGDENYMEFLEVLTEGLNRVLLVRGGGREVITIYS
# experimental_protocol: 86Rb+ uptake (K+-Cl- cotransport) in Xenopus oocytes injected with mKCC4 cRNA
# Type: cell-based
# assay_context: 10 mM potassium salt of anion substitute vs 10 mM KCl reference; hypotonic
One number for each entry, in %.

Observe how each entry below is paired with its result.
compound="O=P([O-])(O)O.[K+] [KH2PO4]" reading=22
compound="[Br-].[K+] [KBr]" reading=58

Please find the next compound below.
Look up 86Rb+ influx in the presence of other anions, percentage of KCC4 function: [I-].[K+] [KI]
17
